Protocol details: NCI Yeast Anticancer Drug Screen. Data for the sgs1 strain (AID 173);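 note: 0% = growth of vehicle-only control cultures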
Experimental conditions: S. cerevisiae sgs1 mutant, at 100.0 µM, active compounds read high
The panel holds about 79,000 compounds, 15% with a hit somewhere; the sample as a whole holds those more often.
Quantity name: growth inhibition (%)
Give bare numbers, in %.

Compound	Unit string	growth inhibition
[N-]=[N+]=C1C(Cl)=C(Cl)C(Cl)=C1Cl	%	99

Give one value of growth inhibition per listed compound.
1. Cc1nc2ccccc2cc1C[N+]12CN3CN(CN(C3)C1)C2
2. CC1=C[C@H]2O[C@@H]3C[C@H]4OC(=O)/C=C\C=C\C(C(C)O)OCC(O)C(C)CC(=O)OC[C@@]2(C[C@@H]1O)[C@]4(C)[C@@]31CO1 (stereo not given in full)
3. CCN(CCCl)c1cc(CN(C)C)cc(NC(=O)c2ccc(C(=O)Nc3cc(CN(C)C)cc(N(CC)CCCl)c3)cc2)c1
4. CC[PH+](CC)CC.CC[PH+](CC)CC.[Au]

Reply:
1: 80; 2: 96; 3: 94; 4: 99

====

What growth inhibition was measured for each of the following?
Protocol details: NCI Yeast Anticancer Drug Screen. Data for the cln2 rad14 strain (AID 165);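 note: 0% = growth equal to vehicle treated cultures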
Experimental conditions: S. cerevisiae cln2 rad14 strain, at 50.0 µM (retest, dose inferred, filed as 5.0), active compounds read high
The panel holds about 79,000 compounds, 15% with a hit somewhere; the sample as a whole holds those more often.
One number for each entry, in %.

Observe how each entry below is paired with its result.
Compound	Value
CCOC(=O)C1C2c3ccccc3C(c3ccccc32)C1C(=O)OCC (stereo not given)	28
COC(=O)C1=C(C)N2CCSC2(C)C(C(=O)OC)C1c1cccc(Cl)c1 (stereo not given)	66
NC1=NCC(c2ccc(Cl)cc2)O1 (stereo not given)	7
C[As](c1ccc(Br)cc1)c1ccc(Br)cc1	-18

Lab note: next compound to report on.
Ask: Given the compound COC1/C=C\C=C(/C)C(=O)NC2=CC(=O)C(NCCCl)=C(CC(C)CC(OC)C(O)C(C)/C=C(/C)C1OC(N)=O)C2=O (stereo not given) , what is its reported growth inhibition?
Reply: 94

====

Protocol details: NCI Yeast Anticancer Drug Screen. Data for the cln2 rad14 strain (AID 165);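 note: 0% = growth equal to vehicle treated cultures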
Experimental conditions: S. cerevisiae cln2 rad14 strain, at 50.0 µM, active compounds read high
This is part of a sample that, as a whole, favours compounds with a hit. Of some 79,000 tested, about 15% had one in any assay.
What growth inhibition was measured for each of the following?
Answers are plain numbers, in %.

Structure	growth inhibition (%)
[Cl][Sn]([Cl])([c]1ccccc1)[c]1ccccc1.c1ccncc1.c1ccncc1	98.8
CC(=O)[CH-]C(C)=O.CC(=O)[CH-]C(C)=O.[CH2-]CCC.[CH2-]CCC.[Sn+4]	90.2
O=S(=O)(O)O.[Pt].c1ccc([PH+](c2ccccc2)c2ccccc2)cc1.c1ccc([PH+](c2ccccc2)c2ccccc2)cc1.c1ccc([PH+](c2ccccc2)c2ccccc2)cc1	97.8

Lab note: next compound to report on.
Ask: Given the compound O=[N+]([O-])[O-].O=[N+]([O-])[O-].[Au].[Au].c1ccc([P-]c2ccccc2)cc1.c1ccc([P-]c2ccccc2)cc1 , what is its reported growth inhibition?
Reply: 89.5

====

Protocol details: NCI Yeast Anticancer Drug Screen. Data for the sgs1 mgt1 strain (AID 161);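 note: 0% = growth of cultures given vehicle only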
Experimental conditions: S. cerevisiae sgs1 mgt1 strain, at 5.0 µM (retest, dose inferred, filed as 0.5)
Compounds without any hit were thinned out: in the full panel of roughly 79,000, 15% have a hit. Calls of active or inactive are those of the source. Rule as the data show it: active = growth inhibition above about 70%; inactive = the rest.
Your response should consist of one outcome taken from active, inactive

Molecule	Class
O=C(N/N=C/c1cc(Cl)cc(Cl)c1[O-])c1ccccc1O.O=C(N/N=C/c1cc(Cl)cc(Cl)c1[O-])c1ccccc1O.[Zn+2]	active

Ask: Hello, I am checking results. What call was entered for [Cl][Sn]1([c]2ccccc2)[O]CCNCC[O]1 ?
Reply: inactive

Ask: Record: C[C@]12CC[C@H](OC(=O)COc3ccc(N(CCCl)CCCl)cc3)C[C@@H]1CC[C@@H]1[C@@H]2CC[C@]2(C)NC(=O)CC[C@@H]12
Reply: inactive

Ask: Record: CCNC(=O)OCC1C2=C(C(=O)C(C)=C(N)C2=O)N2CC3C(N3C)C12OC (stereo unspecified)
Reply: inactive

Ask: Record: ClCc1nc2ccccc2[nH]1
Reply: inactive

Ask: Record: CCOCCOC(=O)Cc1ccccc1
Reply: inactive

Source: PubChem BioAssay (NCI)
